molecular target: T1, recombinant human CD3 epsilon/delta heterodimer (human, UniProt P07766 23-126; P04234 22-105); assay: Octet BLI, mAb on FAB2G sensor, hCD3 E/D 200-50 nM; R^2 0.98;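 further: antibodies purified from hybridoma supernatants, measured by Octet binding to recombinant human CD3 protein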
T1 construct: Recombinant protein in solution (200-50 nM) in the Octet assay; also called hCD3 E/D; human CD3E/D
T1 sequence (P07766 23-126, stated change not applied, chain 1 of 2): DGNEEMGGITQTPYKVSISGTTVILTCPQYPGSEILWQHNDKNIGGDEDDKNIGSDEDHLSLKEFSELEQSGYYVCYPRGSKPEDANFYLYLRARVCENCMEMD
T1 sequence (P04234 22-105, stated change not applied, chain 2 of 2): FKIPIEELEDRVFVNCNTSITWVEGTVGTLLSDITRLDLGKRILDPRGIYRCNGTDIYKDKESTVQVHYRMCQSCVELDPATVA

# binder, koff, s⁻¹
records = [
    ("ABL-CD3-61 (antibody, V domains shown, Chimeric hybridoma mAb: human V, CH1, upper hinge; mouse middle hinge, CH2, CH3) VH: EVQLVESGGGLVKPGGSLRLSCAASGFTFSSYSMNWVRQAPGKGLEWVSSISRSGTYIYYADSVKGRFTISRDNAKNSLYLQMNSLRAEDTAVYYCARERWELLYFDYWGQGTLVTVSS VL: QTVVTQEPSLTVSPGGTVTLTCASSTGAVTSGYYPNWFQQKPGQAPRALIYSTSNKHSWTPARFSGSLLGGKAALTLSGVQPEDEAEYYCLLYYGGAYVFGTGTKVTVL", 0.0218),
    ("ABL-CD3-21 (antibody, V domains shown, Chimeric hybridoma mAb: human V, CH1, upper hinge; mouse middle hinge, CH2, CH3) VH: EVQLVESGGGLVKPGGSLRLSCAASGFTFSSYSMNWVRQAPGKGLEWVSSISRSSSYIYYADSVKGRFTLSRDNAKNSLYLQMNSLRGEDTAIYYCGRDGKGAIFLDYWGQGTLVTVSS VL: SYELTQPPSVSVSPGQTARITCSGDALPKKYAYWYQQKSGQAPVLVIYEDSKRPSGIPERFSGSSSGTMATLTISGAQVEDEADYYCYSTHSSGNHRVFGGGTKLTVL", 0.036),
    ("ABL-CD3-51 (antibody, V domains shown, Chimeric hybridoma mAb: human V, CH1, upper hinge; mouse middle hinge, CH2, CH3) VH: EVQLVESGGGLVKPGGSLRLSCAASGFTFSSYSMNWVRQAPGKGLEWVSSISRSSSYIYYADSVKGRFTISRDNAKNSLYLQMNSLRAEDTAVYYCARERWELLYFDYWGQGTLVTVSS VL: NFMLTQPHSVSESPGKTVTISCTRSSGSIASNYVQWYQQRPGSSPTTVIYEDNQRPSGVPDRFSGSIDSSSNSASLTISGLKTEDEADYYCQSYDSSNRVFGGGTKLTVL", 0.0188),
    ("ABL-CD3-34 (antibody, V domains shown, Chimeric hybridoma mAb: human V, CH1, upper hinge; mouse middle hinge, CH2, CH3) VH: EVHLVESGGGLVKPGGSLRLSCAASGFTFSRYSMNWVRQAPGKGLEWVSSISRSSSYIYYADSVKGRFTISRDNAKNSLYLQMNSLRAEDTAVYYCAREPRTLGMDYWGQGILVTVSS VL: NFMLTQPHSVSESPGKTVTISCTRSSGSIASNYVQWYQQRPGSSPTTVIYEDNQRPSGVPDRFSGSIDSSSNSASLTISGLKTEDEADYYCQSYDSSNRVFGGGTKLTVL", 0.00211),
]

Origin of measurements: patent US20260167721A1
